Below is a list of entries, each paired with its recorded EC50 value.
# System: Poliovirus 1
# ASSAY_NAME: Antiviral activity against Human poliovirus 1 strain Sabin infected African green monkey Vero 76 cells assessed as reduction in plaque number treated after viral infection measured after 2 days by plaque reduction assay
# Assay type: functional, organism-based
# CONDITION_LABEL: Enterovirus C, 48 h

{"columns": ["MOLECULE", "EC50"],
 "data": [
  ["Oc1ccc(-c2nnc3nnc4c5ccccc5[nH]c4n23)cc1", "> 100 µM"],
  ["O=[N+]([O-])c1ccc(-c2nnc3nnc4c5ccccc5[nH]c4n23)cc1", "> 100 µM"]
]}

Exercise: Short answer please: EC50, Poliovirus 1, entry Clc1ccccc1-c1nnc2nnc3c4ccccc4[nH]c3n12
Solution: > 100 µM

Exercise: Quick check: EC50 on Poliovirus 1, item COc1ccc(-c2nnc3nnc4c5ccccc5[nH]c4n23)cc1OC ?
Solution: > 100 µM

Exercise: Form field - read-out: EC50; system: Poliovirus 1; submitted item: Fc1ccc(-c2nnc3nnc4c5ccccc5[nH]c4n23)cc1
Solution: > 100 µM

----------
# ASSAY_NAME: Cytotoxicity against Bos taurus (bovine) MDBK cells assessed as inhibition of cell viability after 48 to 120 hr by MTT assay
# Assay type: cell-based
# CONDITION_LABEL: cattle
READOUT_KIND: CC50

The examples below pair each entry with its known result.
{"columns": ["STRUCTURE_SMILES_STRING", "CC50"],
 "data": [
  ["CSc1ccc(-c2nnc3nnc4c5ccccc5[nH]c4n23)cc1", "> 100 µM"],
  ["COc1ccc(-c2nnc3nnc4c5ccccc5[nH]c4n23)cc1", "> 100 µM"],
  ["c1ccc2c(-c3nnc4nnc5c6ccccc6[nH]c5n34)c3ccccc3cc2c1", "> 100 µM"],
  ["COc1cccc(-c2nnc3nnc4c5ccccc5[nH]c4n23)c1", "64 µM"],
  ["O=[N+]([O-])c1ccccc1-c1nnc2nnc3c4ccccc4[nH]c3n12", "> 100 µM"]
]}

Exercise: Please report the recorded CC50 for Cc1ccc(-c2nnc3nnc4c5ccccc5[nH]c4n23)cc1 .
Solution: > 100 µM

Exercise: Would you kindly share the measured CC50 for COc1ccc(-c2nnc3nnc4c5ccccc5[nH]c4n23)cc1OC ?
Solution: > 100 µM

----------
# ASSAY_NAME: Cytotoxicity against Homo sapiens (human) MT4 cells assessed as inhibition of cell vaibility after 96 hr by MTT assay
# Assay type: cell-based
# CC50 at 96 h listing for each entry below

Please review the entries below; each comes with its answer.
{"columns": ["STRUCTURE_SMILES_STRING", "CC50 at 96 h"],
 "data": [
  ["O=[N+]([O-])c1cccc(-c2nnc3nnc4c5ccccc5[nH]c4n23)c1", "> 100 µM"],
  ["Brc1cccc(-c2nnc3nnc4c5ccccc5[nH]c4n23)c1", "> 100 µM"]
]}

Exercise: Please give the measured CC50 at 96 h for this molecule: CSc1ccc(-c2nnc3nnc4c5ccccc5[nH]c4n23)cc1
Solution: > 100 µM

Exercise: Find the recorded CC50 at 96 h belonging to Clc1ccccc1-c1nnc2nnc3c4ccccc4[nH]c3n12 and report it.
Solution: > 100 µM

Exercise: State the recorded CC50 at 96 h for this entry: Clc1cccc(-c2nnc3nnc4c5ccccc5[nH]c4n23)c1
Solution: 29 µM

Exercise: I have this molecule here, O=[N+]([O-])c1ccccc1-c1nnc2nnc3c4ccccc4[nH]c3n12 , and I need its recorded CC50 at 96 h.
Solution: > 100 µM

Exercise: Consider the molecule shown here: COc1ccc(-c2nnc3nnc4c5ccccc5[nH]c4n23)cc1OC What is its recorded CC50 at 96 h?
Solution: > 100 µM

Exercise: Consider the molecule COc1ccc(OC)c(-c2nnc3nnc4c5ccccc5[nH]c4n23)c1 and give its measured CC50 at 96 h.
Solution: 4 µM

Exercise: Given Oc1ccccc1-c1nnc2nnc3c4ccccc4[nH]c3n12 , state its recorded CC50 at 96 h.
Solution: > 100 µM

Exercise: # CC50 at 96 h lookup, item COc1ccccc1-c1nnc2nnc3c4ccccc4[nH]c3n12
Solution: 5 µM

Exercise: Reported CC50 at 96 h for COc1cc(-c2nnc3nnc4c5ccccc5[nH]c4n23)ccc1O : what is it?
Solution: 58 µM

----------
# ASSAY_NAME: Cytotoxicity against Mesocricetus auratus (Syrian golden hamster) BHK21cells assessed as inhibition of cell viability after 48 to 120 hr by MTT assay
# Type: cell-based
# CONDITION_LABEL: BHK-21 cells
READOUT_KIND: CC50

Below are worked cases with known answers.
{"columns": ["STRUCTURE_SMILES_STRING", "CC50"],
 "data": [
  ["Fc1ccc(-c2nnc3nnc4c5ccccc5[nH]c4n23)cc1", "> 100 µM"],
  ["COc1cc(-c2nnc3nnc4c5ccccc5[nH]c4n23)ccc1O", "45 µM"],
  ["Clc1ccc(-c2nnc3nnc4c5ccccc5[nH]c4n23)cc1", "> 100 µM"],
  ["Oc1ccc(-c2nnc3nnc4c5ccccc5[nH]c4n23)cc1", "> 100 µM"],
  ["Oc1cccc(-c2nnc3nnc4c5ccccc5[nH]c4n23)c1", "> 100 µM"],
  ["O=[N+]([O-])c1ccccc1-c1nnc2nnc3c4ccccc4[nH]c3n12", "> 100 µM"],
  ["COc1ccc(OC)c(-c2nnc3nnc4c5ccccc5[nH]c4n23)c1", "30 µM"],
  ["O=[N+]([O-])c1cccc(-c2nnc3nnc4c5ccccc5[nH]c4n23)c1", "> 100 µM"],
  ["COc1ccccc1-c1nnc2nnc3c4ccccc4[nH]c3n12", "23 µM"],
  ["COc1cccc(-c2nnc3nnc4c5ccccc5[nH]c4n23)c1", "> 100 µM"]
]}

Exercise: For the molecule CSc1ccc(-c2nnc3nnc4c5ccccc5[nH]c4n23)cc1 , what CC50 is on record?
Solution: > 100 µM

----------
# ASSAY_NAME: Cytotoxicity against Mesocricetus auratus (Syrian golden hamster) BHK21cells assessed as inhibition of cell viability after 48 to 120 hr by MTT assay
# Format: cell-based
# CONDITION_LABEL: BHK-21 cells
Recorded CC50 by entry

Solved entries:
{"columns": ["STRUCTURE_SMILES_STRING", "READOUT_KIND", "MEASURED_RESULT"],
 "data": [
  ["Oc1ccccc1-c1nnc2nnc3c4ccccc4[nH]c3n12", "CC50", "> 100 µM"],
  ["Clc1cccc(-c2nnc3nnc4c5ccccc5[nH]c4n23)c1", "CC50", "55 µM"],
  ["Cc1ccc(-c2nnc3nnc4c5ccccc5[nH]c4n23)cc1", "CC50", "> 100 µM"],
  ["O=[N+]([O-])c1ccc(-c2nnc3nnc4c5ccccc5[nH]c4n23)cc1", "CC50", "> 100 µM"],
  ["c1ccc(Oc2cccc(-c3nnc4nnc5c6ccccc6[nH]c5n34)c2)cc1", "CC50", "100 µM"],
  ["COc1ccc(-c2nnc3nnc4c5ccccc5[nH]c4n23)cc1", "CC50", "> 100 µM"]
]}

Exercise: Query: CC50; subject: c1ccc(-c2nnc3nnc4c5ccccc5[nH]c4n23)cc1
Solution: > 100 µM

Exercise: Field request: CC50 | item: c1ccc2c(-c3nnc4nnc5c6ccccc6[nH]c5n34)c3ccccc3cc2c1
Solution: > 100 µM

----------
# System: Yellow fever virus
# ASSAY_NAME: Antiviral activity against Yellow fever virus infected Syrian hamster BHK-21 cells assessed as protection against virus-induced cytopathogenicity treated 1 hr after viral infection measured after 3-4 days by MTT method
# Type: functional, organism-based
Below is a list of entries, each paired with its recorded EC50 value.

In the examples that follow, each entry is paired with its recorded EC50.
{"columns": ["COMPOUND", "MEASURED_RESULT"],
 "data": [
  ["O=[N+]([O-])c1cccc(-c2nnc3nnc4c5ccccc5[nH]c4n23)c1", "> 100 µM"],
  ["COc1ccc(-c2nnc3nnc4c5ccccc5[nH]c4n23)cc1OC", "> 100 µM"],
  ["COc1cc(-c2nnc3nnc4c5ccccc5[nH]c4n23)ccc1O", "> 45 µM"],
  ["COc1ccc(OC)c(-c2nnc3nnc4c5ccccc5[nH]c4n23)c1", "> 30 µM"],
  ["Clc1ccccc1-c1nnc2nnc3c4ccccc4[nH]c3n12", "> 100 µM"]
]}

// below: EC50 requested for another compound
Exercise: Find the recorded EC50 belonging to Oc1ccccc1-c1nnc2nnc3c4ccccc4[nH]c3n12 and report it.
Solution: > 100 µM

----------
# System: Vesicular stomatitis virus
# ASSAY_NAME: Antiviral activity against Vesicular stomatitis virus infected African green monkey Vero 76 cells assessed as reduction in plaque number treated after viral infection measured after 2 days by plaque reduction assay
# Assay type: functional, organism-based
# CONDITION_LABEL: 48 h
pEC50: −log10 of the molar value.
Attribute: pEC50

{"columns": ["STRUCTURE_SMILES_STRING", "READOUT_KIND", "MEASURED_RESULT"],
 "data": [
  ["Brc1cccc(-c2nnc3nnc4c5ccccc5[nH]c4n23)c1", "pEC50", "< 4.00"]
]}

We next turn to a different molecule, shown below.
Exercise: Give the measured pEC50 of Oc1ccccc1-c1nnc2nnc3c4ccccc4[nH]c3n12 .
Solution: < 4.15
